# target.system: furin, P09958;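 also: purified furin at 1:10 enzyme:substrate in 50 mM HEPES pH 7.5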
# Sequence (P09958 whole entry): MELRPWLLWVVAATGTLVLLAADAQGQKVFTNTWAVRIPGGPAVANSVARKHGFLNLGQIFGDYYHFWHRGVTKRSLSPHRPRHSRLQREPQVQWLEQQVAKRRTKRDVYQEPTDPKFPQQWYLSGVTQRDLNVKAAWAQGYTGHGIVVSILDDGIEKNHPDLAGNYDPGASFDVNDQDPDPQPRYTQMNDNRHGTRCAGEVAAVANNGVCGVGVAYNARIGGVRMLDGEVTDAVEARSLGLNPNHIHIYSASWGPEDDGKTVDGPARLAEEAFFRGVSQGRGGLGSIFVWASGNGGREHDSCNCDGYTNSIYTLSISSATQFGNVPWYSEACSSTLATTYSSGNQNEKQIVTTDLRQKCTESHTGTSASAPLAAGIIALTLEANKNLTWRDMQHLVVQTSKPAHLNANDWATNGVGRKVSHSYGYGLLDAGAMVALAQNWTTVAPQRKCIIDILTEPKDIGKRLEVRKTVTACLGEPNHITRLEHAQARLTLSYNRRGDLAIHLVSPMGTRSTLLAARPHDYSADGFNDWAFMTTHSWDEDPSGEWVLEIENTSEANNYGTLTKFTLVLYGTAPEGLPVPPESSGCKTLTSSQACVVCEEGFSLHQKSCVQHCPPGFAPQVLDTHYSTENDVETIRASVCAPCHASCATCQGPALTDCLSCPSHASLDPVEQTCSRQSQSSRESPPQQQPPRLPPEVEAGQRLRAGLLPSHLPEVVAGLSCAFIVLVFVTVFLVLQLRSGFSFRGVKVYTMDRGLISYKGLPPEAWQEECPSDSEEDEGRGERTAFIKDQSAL
# protocol: furin cleavage Z-score vs untreated control; higher = more cleavage, active = 3.5 or more, inactive = 1 or less, 8 variable residues between constant flanks
# experimental.conditions: 30 min
The list shows a part of the results. No count for the full screen is at hand.
Below, each entry is listed alongside its reported furin cleavage Z-score.

Item under review: CATVCCSMSYAGNASASA [HC1998] . Reported furin cleavage Z-score?
0.837 (inactive)

Item under review: CAPRARAARRAGNASASA [FS-1550] . Reported furin cleavage Z-score?
7.08 (active)

Item under review: CAFWEGVFTGAGNASASA [HC939] . Reported furin cleavage Z-score?
-1.49 (inactive)

Item under review: CAEPPCHRPSAGNASASA [HC2339] . Reported furin cleavage Z-score?
-0.0572 (inactive)
